molecular target: Peptide deformylase (Escherichia coli)
Sequence (Q9JN24 whole entry): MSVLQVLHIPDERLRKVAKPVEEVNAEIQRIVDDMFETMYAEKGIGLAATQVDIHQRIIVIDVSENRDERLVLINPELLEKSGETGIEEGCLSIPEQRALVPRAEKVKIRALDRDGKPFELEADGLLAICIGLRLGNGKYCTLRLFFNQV

compound | unitName | Ki
CC(C)(C)[C@@H]1NC(=O)C(CN(O)C=O)CCCCCCCCCNC1=O (stereo partly specified) | nM | 0.67

Just for reference, ChEMBL document CHEMBL1145063 is where these values come from.
